system: CCRIS mutagenicity, Ames/micronucleus/aberration tests; experiment: CCRIS mutagenicity studies; conditions: Test System: AMES SALMONELLA TYPHIMURIUM; Strain/Indicator: TA1538; Metabolic Activation: NONE; Method: PREINCUBATION
Activity calls are given as the source filed them. No rule for the calls is given here.
Choose one outcome from this list and give only that: t for active, f for inactive

{"Molecule": "O=NN1CN2CN(C1)CN(N=O)C2", "Qualitative Label": "f"}
{"Molecule": "Cc1oc(=O)oc1COC(=O)[C@@H]1N2C(=O)[C@@H](NC(=O)[C@H](N)c3ccccc3)[C@H]2SC1(C)C", "Qualitative Label": "f"}
{"Molecule": "Cc1cccc(O)c1C", "Qualitative Label": "f"}
{"Molecule": "Nc1c2ccccc2nc2ccccc12", "Qualitative Label": "f"}
{"Molecule": "CC(C)(c1ccccc1)c1ccc(O)cc1", "Qualitative Label": "f"}

What call does the record list for "O=C(O)/C=C/c1cccc([N+](=O)[O-])c1" ?
f

What call does the record list for "O=C(ON=C1C=CC(=NOC(=O)c2ccccc2)C=C1)c1ccccc1" ?
t

What call does the record list for "CCN(CC)CCCN(c1ccccc1)C1Cc2ccccc2C1" ?
f

What call does the record list for "CCCCCCCC/C=C\CCCCCCCC(=O)O" ?
f

What call does the record list for "CC1(C)SSC[C@@H](C(=O)O)NC1=O" ?
f

What call does the record list for "CN(C)c1ccc([C@H]2C[C@]3(C)[C@@H](CC[C@]3(O)CCCO)[C@@H]3CCC4=CC(=O)CCC4=C32)cc1" ?
f
